- System: Canis familiaris
- assay notes: Oral dose in mg/kg necessary to produce an excretion of 5 mequiv of Na+/kg in the dog urine during 6-h period after dosing
- settings: in vivo
Answer criterion not met if ED5 is under 1 mg/kg, and criterion met if it is 1 mg/kg or more.

Quick check: does Cl.NCc1cc(C(=O)c2ccc(OCCO)c(Cl)c2Cl)ccc1O have ED5 greater than or equal to 1 mg/kg?
criterion met

Quick check: does Cl.NCc1cc(C(=O)c2ccc(OCC(N)=O)c(Cl)c2Cl)ccc1O have ED5 greater than or equal to 1 mg/kg?
criterion not met

Quick check: does Cl.NCCOc1ccc(C(=O)c2ccc(O)c(CN)c2)c(Cl)c1Cl have ED5 greater than or equal to 1 mg/kg?
criterion met

Quick check: does Cl.NCc1cc(C(=O)c2ccc(OCC(=O)O)c(Cl)c2Cl)ccc1O have ED5 greater than or equal to 1 mg/kg?
criterion not met

* * *

- Tested on: Rattus norvegicus
- assay notes: Oral dose necessary to produce an excretion of 2 mequiv of Na+/kg in the rat urine in the 4-h period after peroral administration
- Assay type: ADME, organism-based
- settings: in vivo
In plain terms, low ED2, meaning strictly below 10 mg/kg, gives yes, and everything else gives no.

Hello, I'm reviewing records and need to know if ED2 of CCOC(=O)CCCOc1ccc(Oc2ccc(O)c(CN)c2)c(Cl)c1Cl.Cl is below 10 mg/kg. Could you check?
no

Hello, I'm reviewing records and need to know if ED2 of CC(=O)COc1ccc(C(=O)c2ccc(O)c(CN)c2)c(Cl)c1Cl.Cl is below 10 mg/kg. Could you check?
no

Hello, I'm reviewing records and need to know if ED2 of CCOC(=O)C(C)Oc1ccc(C(=O)c2ccc(O)c(CN)c2)c(Cl)c1Cl.Cl (configuration not stated) is below 10 mg/kg. Could you check?
no

Hello, I'm reviewing records and need to know if ED2 of Cl.NCc1cc(C(=O)c2ccc(OCC(N)=O)c(Cl)c2Cl)ccc1O is below 10 mg/kg. Could you check?
no

Hello, I'm reviewing records and need to know if ED2 of Cl.NCc1cc(C(=O)c2ccc(OCCO)c(Cl)c2Cl)ccc1O is below 10 mg/kg. Could you check?
yes

Hello, I'm reviewing records and need to know if ED2 of Cl.NCCOc1ccc(C(=O)c2ccc(O)c(CN)c2)c(Cl)c1Cl is below 10 mg/kg. Could you check?
no

Hello, I'm reviewing records and need to know if ED2 of CCOC(=O)COc1ccc(Oc2ccc(O)c(CN)c2)c(Cl)c1Cl.Cl is below 10 mg/kg. Could you check?
yes

Hello, I'm reviewing records and need to know if ED2 of CCOC(=O)C1Cc2cc(C(=O)c3ccc(O)c(CN)c3)c(Cl)c(Cl)c2O1 (configuration not stated) is below 10 mg/kg. Could you check?
yes

Hello, I'm reviewing records and need to know if ED2 of CCOC(=O)COc1ccc(C(=O)c2ccc(O)c(CN)c2)c(Cl)c1Cl.Cl is below 10 mg/kg. Could you check?
yes

Hello, I'm reviewing records and need to know if ED2 of CCOC(=O)CCc1ccc(Oc2ccc(O)c(CN)c2)c(Cl)c1Cl.Cl is below 10 mg/kg. Could you check?
no

Hello, I'm reviewing records and need to know if ED2 of CCOC(=O)Cc1ccc(Oc2ccc(O)c(CN)c2)c(Cl)c1Cl.Cl is below 10 mg/kg. Could you check?
no

Hello, I'm reviewing records and need to know if ED2 of CCOC(=O)CSc1ccc(Oc2ccc(O)c(CN)c2)c(Cl)c1Cl.Cl is below 10 mg/kg. Could you check?
yes
